Molecular target: TXA2 receptors (Cavia porcellus)
Construct: the trachea is rapidly removed and then cut out into rings containing two cartilages; from tissue; host or cells: guinea pig trachea rings
Sequence (A0A286Y4I8 1-347): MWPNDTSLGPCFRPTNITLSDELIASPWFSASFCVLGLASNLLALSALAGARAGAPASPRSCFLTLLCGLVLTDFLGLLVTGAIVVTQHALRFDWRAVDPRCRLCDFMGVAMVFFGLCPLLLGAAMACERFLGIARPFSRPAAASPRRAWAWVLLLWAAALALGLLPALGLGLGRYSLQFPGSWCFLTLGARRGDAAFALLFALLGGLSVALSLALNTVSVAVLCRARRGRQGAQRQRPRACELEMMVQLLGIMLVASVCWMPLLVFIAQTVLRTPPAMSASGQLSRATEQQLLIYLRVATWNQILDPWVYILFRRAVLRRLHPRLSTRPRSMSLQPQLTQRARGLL
Assay: Determination of the pA2 values on guinea pig trachea (contractions caused by U46619)
Type: cell-based
Conditions: guinea pig tracheal rings, 37° C., agonist U46619 10^-9 M to 10^-5 M, antagonist contact 20 minutes; read-out: pA2 (negative logarithm of the concentration of antagonist in the presence of which twice the amount of agonist is required for the same effect) (converted)

| compound | quantity_unit | Kb |
| --- | --- | --- |
| O=C(O)CCC/C=C\C[C@@H]1CN(Cc2ccccc2)C[C@@H]1c1ccccc1O (relative stereo) [Example 14] | µM | 0.282 |
| CCCCCCC(=O)N1C[C@@H](C/C=C\CCC(=O)O)[C@@H](c2ccccc2O)C1 (relative stereo) [Example 23] | µM | 0.02 |
| CC(C)C(=O)N1C[C@@H](C/C=C\CCC(=O)O)[C@@H](c2ccccc2O)C1 (relative stereo) [Example 19] | µM | 0.2 |
| O=C(O)CC/C=C\C[C@H]1CN(Cc2cccnc2)C[C@H]1c1ccccc1O (relative stereo) [Example 21] | µM | 1.58 |
| O=C(O)CC/C=C\C[C@@H]1CN(S(=O)(=O)c2ccc(Cl)cc2)C[C@H]1c1ccccc1O (relative stereo) [Example 18] | µM | 0.00794 |
| O=C(O)CC/C=C\C[C@@H]1CN(S(=O)(=O)c2cccc3cnccc23)C[C@@H]1c1ccccc1O (relative stereo) [Example 24] | µM | 0.000316 |
| O=C(O)CC/C=C\C[C@@H]1CN(S(=O)(=O)c2cccc3ccccc23)C[C@@H]1c1ccccc1O (relative stereo) [Example 28] | µM | 0.00158 |

====

Molecular target: TXA2 receptors (Oryctolagus cuniculus, UniProt Q6WQI8)
Construct: citrated platelet-rich plasma, U46619-induced aggregation
Sequence (Q6WQI8 1-233): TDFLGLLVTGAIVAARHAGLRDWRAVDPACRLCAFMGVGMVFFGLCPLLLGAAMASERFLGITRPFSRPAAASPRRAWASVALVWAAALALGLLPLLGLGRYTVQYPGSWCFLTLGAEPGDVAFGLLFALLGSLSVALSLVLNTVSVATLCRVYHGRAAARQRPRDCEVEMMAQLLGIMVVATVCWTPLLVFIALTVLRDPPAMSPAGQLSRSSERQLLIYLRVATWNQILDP
Assay: Platelet aggregation induced by U46619 in rabbit platelet-rich plasma (PRP)
Details: 37° C., antagonist added 3 min before U46619 (1.2 μM), read-out: IC50, concentration which induces 50% inhibition of the aggregation response induced by U46619
Method: The rabbits (2-3 kg) are anesthetized with sodium pentobarbital (30 mg/kg i.v.). After cannulation of the left carotid artery, the blood is collected over sodium citrate (0.109 M) (1 vol. of citrate per 9 vol. of blood). The plasma which is high in platelets (PRP) is obtained by centrifugation (20° C.) at 250 g for 20 minutes and the plasma which is low in platelets (PPP) by centrifugation at 1000 g (10 min). […]
pIC50: −log10 of the molar value.

| compound | pIC50 |
| --- | --- |
| O=C(O)CCC/C=C\C[C@@H]1CN(S(=O)(=O)c2cccc3cnccc23)C[C@@H]1c1ccccc1O (relative stereo) | 6.30 |
| O=C(O)CC/C=C\C[C@@H]1CN(S(=O)(=O)c2ccc(Cl)cc2)C[C@H]1c1ccccc1O (relative stereo) | 5.27 |
| O=C(O)CC/C=C\C[C@@H]1CN(S(=O)(=O)c2cccc3cnccc23)C[C@H]1c1ccccc1O (relative stereo) | 5.30 |
| O=C(O)CC/C=C\C[C@@H]1CN(C(=O)Nc2ccccc2)C[C@@H]1c1ccccc1O (relative stereo) | 5.40 |
| O=C(O)CC/C=C\C[C@@H]1CN(S(=O)(=O)c2cccc3ccccc23)C[C@@H]1c1ccccc1O (relative stereo) | 6.30 |
| O=C(O)CC/C=C\C[C@@H]1CN(S(=O)(=O)c2cccc3cnccc23)C[C@@H]1c1ccccc1O (relative stereo) | 6.10 |
